# measurement.target: murine class II MHC allele E^k on CH27 B cell lymphoma antigen presenting cells (murine)
# experiment.description: cell-based or functional assay
Non-standard residues stand in square brackets, D forms with d. Ava = NCCCCC(=O)O
Listed binders paired with reported T cell proliferative response (HT-2 [3H]TdR uptake) at 0.05 nM

Ac-LRMK[Ava]IAYLKQATAK-NH2 (SMILES CC[C@H](C)[C@H](NC(=O)CCCCNC(=O)[C@H](CCCCN)NC(=O)[C@H](CCSC)NC(=O)[C@H](CCCNC(=N)N)NC(=O)[C@H](CC(C)C)NC(C)=O)C(=O)N[C@@H](C)C(=O)N[C@@H](Cc1ccc(O)cc1)C(=O)N[C@@H](CC(C)C)C(=O)N[C@@H](CCCCN)C(=O)N[C@@H](CCC(N)=O)C(=O)N[C@@H](C)C(=O)N[C@H](C(=O)N[C@@H](C)C(=O)N[C@@H](CCCCN)C(N)=O)[C@@H](C)O) [Hybrid 2, Ac-LRMK-ava-IAYLKQATAK-NH2]
19.8 thousands of cpm

Next binder, T cell proliferative response (HT-2 [3H]TdR uptake) at 0.05 nM to be filled in.
-- ask Return value of T cell proliferative response (HT-2 [3H]TdR uptake) at 0.05 nM for input Ac-LRMK[Ava][Ava]IAYLKQATAK-NH2 (SMILES CC[C@H](C)[C@H](NC(=O)CCCCNC(=O)CCCCNC(=O)[C@H](CCCCN)NC(=O)[C@H](CCSC)NC(=O)[C@H](CCCNC(=N)N)NC(=O)[C@H](CC(C)C)NC(C)=O)C(=O)N[C@@H](C)C(=O)N[C@@H](Cc1ccc(O)cc1)C(=O)N[C@@H](CC(C)C)C(=O)N[C@@H](CCCCN)C(=O)N[C@@H](CCC(N)=O)C(=O)N[C@@H](C)C(=O)N[C@H](C(=O)N[C@@H](C)C(=O)N[C@@H](CCCCN)C(N)=O)[C@@H](C)O) [Hybrid 3, Ac-LRMK-ava-ava-IAYLKQATAK-NH2] , no commentary.
-- reply 5.3 thousands of cpm
